- System: T. cruzi bloodstream trypomastigotes INC-5 strain
- measurement-notes: microbe, parasite or virus in culture
- Assay type: cell-based
- condition-label: bloodstream trypomastigotes, 24 h at 4 °C (called IC50 in abstract); read-out: LC50 INC-5 Strain

{"compound": "CC(C)OC(=O)c1ccc2c(c1)[n+]([O-])c(C(=O)C(C)C)c(C(F)(F)F)[n+]2[O-] [Compound T-085]", "measure-unit": "µM", "CC50": 73.1}

* * *

- Tested on: T. cruzi INC-5 epimastigotes
- measurement-notes: Viability (MTT) assay on T. cruzi epimastigotes
- Type: cell-based, Trypanosoma cruzi
- condition-label: Trypanosoma cruzi, 24 h, mean and SD of triplicate
pIC50: −log10 of the molar value.
Would you mind classing the entries by pIC50? Ranges: group 1 (below 4), group 2 (4 to below 5), group 3 (5 or more)

{"structure-as-smiles": "CC(C)OC(=O)c1ccc2c(c1)[n+]([O-])c(C(=O)C(C)C)c(C(F)(F)F)[n+]2[O-]", "discrete-label": "group 3"}
{"structure-as-smiles": "Cc1c(C(=O)Nc2ccccc2)[n+]([O-])c2cc(C(=O)OC(C)C)ccc2[n+]1[O-]", "discrete-label": "group 1"}
{"structure-as-smiles": "CCCOC(=O)c1ccc2c(c1)[n+]([O-])c(C(=O)OC)c(C)[n+]2[O-]", "discrete-label": "group 1"}
{"structure-as-smiles": "CCCOC(=O)c1ccc2c(c1)[n+]([O-])c(C(=O)OC(C)(C)C)c(C)[n+]2[O-]", "discrete-label": "group 1"}
{"structure-as-smiles": "CC(C)OC(=O)c1ccc2c(c1)[n+]([O-])c(C(=O)C(F)(F)C(F)(F)F)c(C(F)(F)F)[n+]2[O-]", "discrete-label": "group 2"}
{"structure-as-smiles": "Cc1c(C(N)=O)[n+]([O-])c2cc(C(=O)OC(C)C)ccc2[n+]1[O-]", "discrete-label": "group 1"}
{"structure-as-smiles": "CCCOC(=O)c1ccc2c(c1)[n+]([O-])c(C(=O)OCC)c(C)[n+]2[O-]", "discrete-label": "group 1"}
{"structure-as-smiles": "CC(C)OC(=O)c1ccc2c(c1)[n+]([O-])c(C(=O)c1ccccc1)c(C(F)(F)F)[n+]2[O-]", "discrete-label": "group 3"}
{"structure-as-smiles": "CC(C)OC(=O)c1ccc2c(c1)[n+]([O-])c(C(=O)c1cccs1)c(C(F)(F)F)[n+]2[O-]", "discrete-label": "group 3"}
{"structure-as-smiles": "COC(=O)c1c(C)[n+]([O-])c2ccc(C(=O)OC(C)C)cc2[n+]1[O-]", "discrete-label": "group 2"}
{"structure-as-smiles": "CCOC(=O)c1c(C)[n+]([O-])c2ccc(C(=O)OC(C)C)cc2[n+]1[O-]", "discrete-label": "group 1"}
{"structure-as-smiles": "CC(C)OC(=O)c1ccc2c(c1)[n+]([O-])c(C(=O)c1ccco1)c(C(F)(F)F)[n+]2[O-]", "discrete-label": "group 2"}

* * *

- target: recombinant T. cruzi TR (Trypanosoma cruzi)
- Sequence (P28593 whole entry): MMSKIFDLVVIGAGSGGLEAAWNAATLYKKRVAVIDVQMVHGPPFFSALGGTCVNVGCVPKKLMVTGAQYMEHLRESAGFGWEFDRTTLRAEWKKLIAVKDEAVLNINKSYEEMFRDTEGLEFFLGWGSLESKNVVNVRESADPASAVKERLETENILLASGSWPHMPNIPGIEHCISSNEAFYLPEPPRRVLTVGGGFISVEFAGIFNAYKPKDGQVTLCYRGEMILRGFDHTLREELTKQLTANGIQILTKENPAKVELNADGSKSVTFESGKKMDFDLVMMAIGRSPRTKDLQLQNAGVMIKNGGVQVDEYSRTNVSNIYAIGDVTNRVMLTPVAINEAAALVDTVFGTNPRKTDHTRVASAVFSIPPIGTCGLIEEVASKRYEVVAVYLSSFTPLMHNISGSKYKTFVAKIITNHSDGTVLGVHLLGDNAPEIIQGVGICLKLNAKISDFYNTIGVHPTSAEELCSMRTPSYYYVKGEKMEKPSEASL
- measurement-notes: TR enzyme inhibition (NADPH consumption at 340 nm)
- condition-label: TcTR, Lineweaver-Burk plot, inhibitor 15 and 50 µM, TS2 20-200 µM
readout: Ki

{"structure-as-smiles": "CC(C)OC(=O)c1ccc2c(c1)[n+]([O-])c(C(=O)C(C)C)c(C(F)(F)F)[n+]2[O-]", "target": "recombinant T. cruzi TR (Trypanosoma cruzi)", "reported-result": "35 µM"}
